# Tested on: alternative splicing of a specific gene (GFP/RFP reporter)
# ASSAY REMARKS: Compound screen with GFP/RFP alternative splicing reporter
# Type: cell-based
In this section we review reported Number of cells values for a set of compounds.

- COMPOUND: "NC(=O)c1ncn([C@@H]2O[C@H](CO)[C@@H](O)[C@H]2O)n1 (racemic)"
  Number of cells: 3140
- COMPOUND: "NC[C@H](O)c1ccc(O)c(O)c1.O=C(O)C(O)C(O)C(=O)O [Norepinephrine-(+)-tartrate l (−)]"
  Number of cells: 4210
- COMPOUND: "C#C[C@]1(O)CC[C@H]2[C@@H]3CCC4=CC(=O)CC[C@@H]4[C@H]3CC[C@@]21C (racemic)"
  Number of cells: 3205
- COMPOUND: "CC(C)NCC(O)c1ccc(O)c(O)c1.Cl (racemic) [Isoproterenol HCl (rac)]"
  Number of cells: 3953
- COMPOUND: "CC(C)CN(C[C@@H](O)[C@H](Cc1ccccc1)NC(=O)O[C@H]1CCOC1)S(=O)(=O)c1ccc(N)cc1 (racemic)"
  Number of cells: 2564
- COMPOUND: "CCc1nn(CCCN2CCN(c3cccc(Cl)c3)CC2)c(=O)n1CCOc1ccccc1 (racemic)"
  Number of cells: 2966
- COMPOUND: "CNC[C@H](O)c1ccc(O)c(O)c1.O=C(O)C(O)C(O)C(=O)O [Epinephrine-(+)-tartrate l (−)]"
  Number of cells: 4057
